Values from ChEMBL document CHEMBL2218924

Could you please report measured residual activity for the items listed next?
TARGET_UNDER_TEST: Cyclin-dependent kinase 1/cyclin B1 (Homo sapiens) (UniProt P06493+P14635)
Sequence (P06493 whole entry, looked up): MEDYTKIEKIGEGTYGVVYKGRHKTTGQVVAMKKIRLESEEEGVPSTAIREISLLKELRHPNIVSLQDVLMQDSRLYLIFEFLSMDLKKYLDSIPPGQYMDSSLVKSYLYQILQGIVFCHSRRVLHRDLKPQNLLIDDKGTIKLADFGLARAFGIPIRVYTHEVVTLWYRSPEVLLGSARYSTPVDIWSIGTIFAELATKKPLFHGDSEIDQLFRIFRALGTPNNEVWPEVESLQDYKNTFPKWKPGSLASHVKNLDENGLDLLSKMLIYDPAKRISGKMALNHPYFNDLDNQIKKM
Sequence (P14635 whole entry, looked up): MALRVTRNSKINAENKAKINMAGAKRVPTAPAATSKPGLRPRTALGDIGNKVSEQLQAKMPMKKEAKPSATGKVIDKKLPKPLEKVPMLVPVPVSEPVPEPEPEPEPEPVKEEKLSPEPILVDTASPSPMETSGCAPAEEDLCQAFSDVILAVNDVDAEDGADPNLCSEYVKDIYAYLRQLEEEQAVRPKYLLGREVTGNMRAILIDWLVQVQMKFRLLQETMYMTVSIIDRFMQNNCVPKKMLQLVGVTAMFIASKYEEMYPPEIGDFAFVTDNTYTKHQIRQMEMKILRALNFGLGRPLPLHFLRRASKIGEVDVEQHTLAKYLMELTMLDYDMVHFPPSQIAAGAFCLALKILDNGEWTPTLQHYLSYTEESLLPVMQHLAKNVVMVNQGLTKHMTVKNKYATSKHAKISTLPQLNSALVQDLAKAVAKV
TEST_PARAMETERS: at 10 µM
Value expressed in %; do not type the unit.

Exercise: // residual activity lookup, key: "CC[n+]1c(/C=C/N(C)c2ccccc2)n(-c2ccccc2)c2ccc(-c3nc4ccccc4s3)cc21"
Key: 91

Exercise: // residual activity lookup, key: "CCOc1cc2ncnc(Nc3cccc(Br)c3)c2cc1OCC"
Key: 89

Exercise: // residual activity lookup, key: "Cc1nc(-c2ccccc2)c(-c2ccncc2)o1"
Key: 92

----------
TARGET_UNDER_TEST: ALK tyrosine kinase receptor (Homo sapiens)
TEST_PARAMETERS: at 10 µM
QUANTITY_MEASURED: residual activity (%)
Value expressed in %; do not type the unit.

Exercise: // residual activity lookup, key: "CNc1cc2c(Nc3cccc(Br)c3)ncnc2cn1"
Key: 72

Exercise: // residual activity lookup, key: "Ic1cccc(CSc2nnc(-c3ccncc3)o2)c1"
Key: 68

Exercise: // residual activity lookup, key: "O=[N+]([O-])c1ccc(-c2nc(-c3ccc(F)cc3)c(-c3ccncc3)[nH]2)cc1"
Key: 65

Exercise: // residual activity lookup, key: "COc1ccc(S(=O)(=O)N(CCO)c2ccccc2CN(C)C/C=C/c2ccc(Cl)cc2)cc1"
Key: 59

Exercise: // residual activity lookup, key: "O=C1Nc2ccc(Br)cc2/C1=C\c1cc2c([nH]1)CCCC2"
Key: 112

Exercise: // residual activity lookup, key: "CCC(=O)Nc1ccc2ncnc(Nc3cccc(Br)c3)c2c1"
Key: 88

----------
TARGET_UNDER_TEST: Protein kinase C zeta type (Homo sapiens) (UniProt Q05513)
Sequence (whole entry): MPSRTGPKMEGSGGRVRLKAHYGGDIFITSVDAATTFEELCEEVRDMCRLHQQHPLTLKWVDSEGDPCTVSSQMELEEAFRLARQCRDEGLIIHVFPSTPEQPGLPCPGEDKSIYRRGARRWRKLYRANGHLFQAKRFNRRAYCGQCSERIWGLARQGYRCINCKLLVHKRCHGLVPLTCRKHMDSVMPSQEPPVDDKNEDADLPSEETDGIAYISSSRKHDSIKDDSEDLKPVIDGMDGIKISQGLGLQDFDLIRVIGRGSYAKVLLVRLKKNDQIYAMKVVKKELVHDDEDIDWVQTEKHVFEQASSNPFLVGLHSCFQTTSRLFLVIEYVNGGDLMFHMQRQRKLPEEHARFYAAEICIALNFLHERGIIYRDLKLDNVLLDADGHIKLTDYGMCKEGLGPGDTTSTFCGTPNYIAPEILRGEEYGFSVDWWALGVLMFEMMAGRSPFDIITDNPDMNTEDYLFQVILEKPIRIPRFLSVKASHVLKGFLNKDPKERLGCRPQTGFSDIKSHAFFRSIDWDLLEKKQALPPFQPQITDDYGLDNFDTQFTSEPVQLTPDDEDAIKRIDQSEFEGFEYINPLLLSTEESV
TEST_PARAMETERS: at 10 µM
Could you please report measured residual activity for the items listed next?
Value expressed in %; do not type the unit.

Exercise: // residual activity lookup, key: "CC(=O)O/N=C1\C(=C2\C(=O)Nc3cc(Br)ccc32)Nc2ccccc21"
Key: 95

Exercise: // residual activity lookup, key: "COc1cc2ncnc(N3CCN(C(=O)Nc4ccc(Oc5ccccc5)cc4)CC3)c2cc1OC"
Key: 116

Exercise: // residual activity lookup, key: "Cn1nc2c3c(cccc31)C(=O)c1ccccc1-2"
Key: 106

Exercise: // residual activity lookup, key: "O=C1Nc2cc(Br)ccc2/C1=C1/Nc2ccccc2/C1=N\O"
Key: 99

Exercise: // residual activity lookup, key: "c1ccc2c(-c3ccncc3)c[nH]c2c1"
Key: 84

----------
TARGET_UNDER_TEST: Fibroblast growth factor receptor 1 (Homo sapiens) (UniProt P11362)
Sequence (P11362 22-822 limits assumed): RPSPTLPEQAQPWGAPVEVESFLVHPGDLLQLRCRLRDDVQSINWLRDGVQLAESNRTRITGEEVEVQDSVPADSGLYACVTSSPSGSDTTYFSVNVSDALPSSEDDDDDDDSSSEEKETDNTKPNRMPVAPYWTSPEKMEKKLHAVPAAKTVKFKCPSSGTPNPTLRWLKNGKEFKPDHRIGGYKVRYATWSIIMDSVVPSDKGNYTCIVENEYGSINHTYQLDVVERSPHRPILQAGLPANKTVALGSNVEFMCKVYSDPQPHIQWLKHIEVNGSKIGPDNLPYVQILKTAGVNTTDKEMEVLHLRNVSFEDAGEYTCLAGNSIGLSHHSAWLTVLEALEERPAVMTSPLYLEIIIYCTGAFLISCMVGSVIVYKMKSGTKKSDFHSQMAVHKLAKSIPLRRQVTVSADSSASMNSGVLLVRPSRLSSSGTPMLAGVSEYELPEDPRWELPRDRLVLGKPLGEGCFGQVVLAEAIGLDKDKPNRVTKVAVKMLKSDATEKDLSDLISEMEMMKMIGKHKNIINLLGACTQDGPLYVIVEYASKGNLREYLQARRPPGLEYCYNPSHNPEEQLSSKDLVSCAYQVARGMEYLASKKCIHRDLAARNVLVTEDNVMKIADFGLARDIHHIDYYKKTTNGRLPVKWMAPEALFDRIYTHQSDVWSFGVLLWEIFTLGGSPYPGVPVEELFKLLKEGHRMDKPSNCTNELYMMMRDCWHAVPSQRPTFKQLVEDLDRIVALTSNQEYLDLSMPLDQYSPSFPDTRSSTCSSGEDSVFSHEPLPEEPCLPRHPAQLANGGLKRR
TEST_PARAMETERS: at 1 µM
QUANTITY_MEASURED: residual activity

Exercise: // residual activity lookup, key: "Cn1cnc2cc3c(Nc4cccc(Br)c4)ncnc3cc21"
Key: 74%

Exercise: // residual activity lookup, key: "Cc1nc(-c2ccccc2)c(-c2ccncc2)o1"
Key: 120%

Exercise: // residual activity lookup, key: "Cc1cc2ncc(-c3ccccc3)nc2cc1C"
Key: 86%

----------
Could you please report measured residual activity for the items listed next?
TARGET_UNDER_TEST: Tyrosine-protein kinase ITK/TSK (Homo sapiens)
TEST_PARAMETERS: at 10 µM
Value expressed in %; do not type the unit.

Exercise: // residual activity lookup, key: "COc1cc2ncnc(Nc3ccc(O)c(Br)c3)c2cc1OC"
Key: 71

Exercise: // residual activity lookup, key: "Cc1nc2cc3nc(-c4cccs4)cnc3cc2n1C"
Key: 71

Exercise: // residual activity lookup, key: "COc1cccc(-c2cc(=O)c3ccccc3o2)c1N"
Key: 108

Exercise: // residual activity lookup, key: "Cc1ccc(NC2=CC(=O)c3sc(C)nc3C2=O)cc1"
Key: 101

Exercise: // residual activity lookup, key: "COc1cc2ncnc(N3CCN(C(=O)Nc4ccc(Oc5ccccc5)cc4)CC3)c2cc1OC"
Key: 73

Exercise: // residual activity lookup, key: O=C1Nc2ccccc2/C1=C1/Nc2ccccc2/C1=N\OCCC(O)CO (stereo unspecified)
Key: 2

Exercise: // residual activity lookup, key: "Cc1ccc(S(=O)(=O)/C=C/C#N)cc1"
Key: 102

Exercise: // residual activity lookup, key: "O=C(O)c1ccc2c3c1cccc3c(=O)n1c3ccccc3nc21"
Key: 94

Exercise: // residual activity lookup, key: "c1ccc2c(-c3ccncc3)c[nH]c2c1"
Key: 95

Exercise: // residual activity lookup, key: "NC(=O)c1ccc2[nH]c(-c3ccc(Oc4ccc(Cl)cc4)cc3)nc2c1"
Key: 86

Exercise: // residual activity lookup, key: "Cn1cc(/C=C2\C(=O)Nc3ccc(S(N)(=O)=O)cc32)c2ccccc21"
Key: 1

Exercise: // residual activity lookup, key: "O=c1cc(-c2cccc3c2Sc2ccccc2S3)oc(N2CCOCC2)c1"
Key: 99

Exercise: // residual activity lookup, key: "Cn1nc2c3c(cccc31)C(=O)c1ccccc1-2"
Key: 92

Exercise: // residual activity lookup, key: "CC(=O)O/N=C1\C(=C2\C(=O)Nc3cc(Br)ccc32)Nc2ccccc21"
Key: 39

Exercise: // residual activity lookup, key: "Nc1cccc(-c2cc3c(Oc4cccc(O)c4)ncnc3[nH]2)c1"
Key: 49

Exercise: // residual activity lookup, key: "CO[C@H]1C[C@@H]2CC[C@@H](C)[C@@](O)(O2)C(=O)C(=O)N2CCCC[C@H]2C(=O)O[C@H]([C@H](C)C[C@@H]2CC[C@@H](O)[C@H](OC)C2)CC(=O)[C@H](C)/C=C(\C)[C@@H](O)[C@@H](OC)C(=O)[C@H](C)C[C@H](C)/C=C/C=C/C=C/1C"
Key: 113

Exercise: // residual activity lookup, key: "COc1cc2ncnc(Nc3ccc(NC(=O)c4ccccc4)cc3)c2cc1OC"
Key: 99

Exercise: // residual activity lookup, key: "O=C1c2ccccc2-[n+]2ccc3c([nH]c4ccccc43)c21"
Key: 93

Exercise: // residual activity lookup, key: "O=C1Nc2cc(Br)ccc2/C1=C1/Nc2ccccc2/C1=N\O"
Key: 9

Exercise: // residual activity lookup, key: "c1ccc(-c2n[nH]c3c2oc2ccccc23)cc1"
Key: 66

Exercise: // residual activity lookup, key: "CN(C)c1ccc(/C=C2\C(=O)Nc3ccccc32)cc1"
Key: 65

----------
TARGET_UNDER_TEST: ALK tyrosine kinase receptor (Homo sapiens) (UniProt Q9UM73)
Sequence (Q9UM73 19-1620 limits assumed): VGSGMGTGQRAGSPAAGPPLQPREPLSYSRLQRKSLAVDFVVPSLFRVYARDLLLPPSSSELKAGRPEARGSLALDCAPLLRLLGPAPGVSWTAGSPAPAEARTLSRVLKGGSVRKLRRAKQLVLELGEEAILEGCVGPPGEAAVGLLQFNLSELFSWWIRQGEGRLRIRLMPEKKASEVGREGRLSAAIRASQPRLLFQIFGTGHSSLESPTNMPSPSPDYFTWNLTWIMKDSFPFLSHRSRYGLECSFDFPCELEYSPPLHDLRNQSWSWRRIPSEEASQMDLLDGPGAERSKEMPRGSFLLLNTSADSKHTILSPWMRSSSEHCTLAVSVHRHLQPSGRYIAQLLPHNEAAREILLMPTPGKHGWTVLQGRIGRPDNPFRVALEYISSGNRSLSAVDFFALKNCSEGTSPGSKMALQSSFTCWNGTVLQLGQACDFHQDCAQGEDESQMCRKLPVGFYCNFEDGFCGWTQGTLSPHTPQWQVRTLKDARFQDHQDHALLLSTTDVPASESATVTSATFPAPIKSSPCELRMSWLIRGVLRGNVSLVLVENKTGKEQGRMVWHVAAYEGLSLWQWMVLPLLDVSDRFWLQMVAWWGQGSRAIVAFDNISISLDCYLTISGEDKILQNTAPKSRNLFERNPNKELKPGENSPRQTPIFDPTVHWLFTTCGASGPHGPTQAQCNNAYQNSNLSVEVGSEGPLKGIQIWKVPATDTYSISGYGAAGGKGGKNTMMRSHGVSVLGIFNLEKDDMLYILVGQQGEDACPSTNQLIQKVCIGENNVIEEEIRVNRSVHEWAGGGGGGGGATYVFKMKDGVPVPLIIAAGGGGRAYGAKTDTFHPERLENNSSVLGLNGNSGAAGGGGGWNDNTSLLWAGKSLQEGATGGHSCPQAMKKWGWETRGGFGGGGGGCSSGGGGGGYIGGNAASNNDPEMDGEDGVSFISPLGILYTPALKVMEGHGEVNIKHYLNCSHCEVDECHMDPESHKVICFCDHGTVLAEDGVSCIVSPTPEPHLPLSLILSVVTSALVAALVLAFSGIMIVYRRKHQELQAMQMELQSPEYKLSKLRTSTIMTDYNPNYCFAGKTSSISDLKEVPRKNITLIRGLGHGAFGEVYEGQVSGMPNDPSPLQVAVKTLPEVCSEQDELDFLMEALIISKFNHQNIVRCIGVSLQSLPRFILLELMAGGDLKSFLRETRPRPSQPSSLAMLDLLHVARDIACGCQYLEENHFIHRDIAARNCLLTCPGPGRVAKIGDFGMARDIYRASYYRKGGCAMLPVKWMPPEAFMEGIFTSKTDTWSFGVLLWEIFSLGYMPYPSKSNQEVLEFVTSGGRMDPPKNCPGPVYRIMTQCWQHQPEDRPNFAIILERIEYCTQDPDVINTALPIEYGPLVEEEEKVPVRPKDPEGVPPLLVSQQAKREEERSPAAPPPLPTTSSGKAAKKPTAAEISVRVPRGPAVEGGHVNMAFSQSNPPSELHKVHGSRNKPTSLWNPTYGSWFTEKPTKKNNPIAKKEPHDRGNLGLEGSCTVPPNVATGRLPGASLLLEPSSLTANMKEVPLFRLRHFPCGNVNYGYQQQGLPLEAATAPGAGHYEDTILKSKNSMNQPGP
TEST_PARAMETERS: at 1 µM
QUANTITY_MEASURED: residual activity

Exercise: // residual activity lookup, key: "CC(=O)c1ccc(N2CCOCC2)cc1O"
Key: 80%

Exercise: // residual activity lookup, key: "Cc1cccc(-c2[nH]c(C(C)(C)C)nc2-c2ccc3c(c2)OCO3)n1"
Key: 82%

Exercise: // residual activity lookup, key: "Nc1ccc2ncnc(NCCc3ccc(Oc4ccccc4)cc3)c2c1"
Key: 81%

Exercise: // residual activity lookup, key: "CC(C)n1cnc2/c(=N/c3cccc(Cl)c3)nc(NCCO)[nH]c21"
Key: 81%

----------
Could you please report measured residual activity for the items listed next?
TARGET_UNDER_TEST: Serine/threonine-protein kinase 10 (Homo sapiens) (UniProt O94804)
Sequence (O94804 whole entry, looked up): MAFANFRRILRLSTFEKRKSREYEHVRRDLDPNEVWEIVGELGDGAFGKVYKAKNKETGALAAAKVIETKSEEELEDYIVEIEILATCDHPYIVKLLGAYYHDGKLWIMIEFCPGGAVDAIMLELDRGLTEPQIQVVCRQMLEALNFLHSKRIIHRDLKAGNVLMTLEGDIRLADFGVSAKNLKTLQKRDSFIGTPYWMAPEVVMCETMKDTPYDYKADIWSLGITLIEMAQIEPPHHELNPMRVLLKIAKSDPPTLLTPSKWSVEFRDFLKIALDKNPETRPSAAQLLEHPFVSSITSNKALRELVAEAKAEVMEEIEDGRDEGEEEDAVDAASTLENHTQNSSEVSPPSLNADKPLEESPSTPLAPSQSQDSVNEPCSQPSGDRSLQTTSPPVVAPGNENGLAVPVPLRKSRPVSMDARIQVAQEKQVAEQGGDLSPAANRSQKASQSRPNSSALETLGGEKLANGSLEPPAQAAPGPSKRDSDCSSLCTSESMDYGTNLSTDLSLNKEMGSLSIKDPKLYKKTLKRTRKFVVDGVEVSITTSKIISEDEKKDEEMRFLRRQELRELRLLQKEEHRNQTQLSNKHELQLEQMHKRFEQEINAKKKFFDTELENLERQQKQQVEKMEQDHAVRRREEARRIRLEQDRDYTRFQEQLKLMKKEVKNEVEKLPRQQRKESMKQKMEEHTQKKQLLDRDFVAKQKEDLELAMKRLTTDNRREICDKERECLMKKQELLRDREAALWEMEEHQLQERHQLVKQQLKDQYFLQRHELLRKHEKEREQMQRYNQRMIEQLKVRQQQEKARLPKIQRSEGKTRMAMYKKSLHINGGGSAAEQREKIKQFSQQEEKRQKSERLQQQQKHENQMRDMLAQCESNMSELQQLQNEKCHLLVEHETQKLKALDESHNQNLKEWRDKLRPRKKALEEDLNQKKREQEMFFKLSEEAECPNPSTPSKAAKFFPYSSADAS
TEST_PARAMETERS: at 10 µM
Value expressed in %; do not type the unit.

Exercise: // residual activity lookup, key: "Cc1nc2cc3nc(-c4cccs4)cnc3cc2n1C"
Key: 99

Exercise: // residual activity lookup, key: "c1ccc2c(-c3ccncc3)c[nH]c2c1"
Key: 54

Exercise: // residual activity lookup, key: "O=C(Nc1cccc(Nc2cc(Nc3cccc(C(F)(F)F)c3)ncn2)c1)C1CC1"
Key: 57

Exercise: // residual activity lookup, key: "Oc1ccc(Nc2nc(-c3ccc(Cl)cc3)cs2)cc1"
Key: 107

Exercise: // residual activity lookup, key: "Cc1ccc(S(=O)(=O)/C=C/C#N)cc1"
Key: 108

Exercise: // residual activity lookup, key: "COc1cc2ncnc(Nc3ccc(O)c(Br)c3)c2cc1OC"
Key: 8

Exercise: // residual activity lookup, key: "COc1cc2ncc(-c3ccccc3)nc2cc1OC"
Key: 88

Exercise: // residual activity lookup, key: "N#Cc1cnc2cnc(NCc3cccnc3)cc2c1Nc1ccc(F)c(Cl)c1"
Key: 93

Exercise: // residual activity lookup, key: "COc1cccc(-c2cc(=O)c3ccccc3o2)c1N"
Key: 105

Exercise: // residual activity lookup, key: "O=C1NC(=O)c2c1c1c3ccccc3[nH]c1c1[nH]c3cc(Br)ccc3c21"
Key: 95

Exercise: // residual activity lookup, key: "O=C1NC(=O)/C(=C\c2ccc3nccnc3c2)S1"
Key: 35

Exercise: // residual activity lookup, key: "N#CC(C#N)=C(N)/C(C#N)=C/c1ccc(O)cc1"
Key: 96

Exercise: // residual activity lookup, key: "O=c1cc(-c2cccc3c2Sc2ccccc2S3)oc(N2CCOCC2)c1"
Key: 101

Exercise: // residual activity lookup, key: "Cn1cc(/C=C2\C(=O)Nc3ccc(S(N)(=O)=O)cc32)c2ccccc21"
Key: 7

Exercise: // residual activity lookup, key: "O=C1NC(=O)/C(=C/c2ccc3c(c2)OC(F)(F)O3)S1"
Key: 89

Exercise: // residual activity lookup, key: "Cn1cnc2cc3c(Nc4cccc(Br)c4)ncnc3cc21"
Key: 10

Exercise: // residual activity lookup, key: "CC(C)n1cnc2/c(=N/c3cccc(Cl)c3)nc(NCCO)[nH]c21"
Key: 47
